target_or_system: P2X purinoceptor 7 (Rattus norvegicus, UniProt Q64663)
Sequence (Q64663 whole entry): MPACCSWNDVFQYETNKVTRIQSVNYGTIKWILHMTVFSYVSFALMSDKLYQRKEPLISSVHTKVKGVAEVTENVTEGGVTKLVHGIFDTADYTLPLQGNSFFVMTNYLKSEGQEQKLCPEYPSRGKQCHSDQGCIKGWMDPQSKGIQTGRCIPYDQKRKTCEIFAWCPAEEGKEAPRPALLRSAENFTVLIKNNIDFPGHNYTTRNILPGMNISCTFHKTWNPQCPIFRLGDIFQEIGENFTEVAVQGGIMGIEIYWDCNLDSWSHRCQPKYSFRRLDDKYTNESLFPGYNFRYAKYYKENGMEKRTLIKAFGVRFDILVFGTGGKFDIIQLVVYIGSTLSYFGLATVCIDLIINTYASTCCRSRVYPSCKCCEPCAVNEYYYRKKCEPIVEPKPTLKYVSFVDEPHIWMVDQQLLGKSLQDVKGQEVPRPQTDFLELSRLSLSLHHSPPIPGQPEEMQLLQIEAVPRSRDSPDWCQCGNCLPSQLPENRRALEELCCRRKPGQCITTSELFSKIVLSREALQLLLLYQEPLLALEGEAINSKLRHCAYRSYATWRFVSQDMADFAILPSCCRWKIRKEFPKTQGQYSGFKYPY
assay_procedure: Antagonist activity at rat P2X7 receptor expressed in 1321N1 cells assessed as inhibition of agonist-induced calcium flux pretreated for 3 mins followed by BzATP addition after 3 mins measured every 1 sec for 60 secs and at 5 secs interval throughout testing by Flou-4-AM dye based FLIPR assay

# structure_smiles_string, IC50
data = [
    ("C[C@H](N/C(=N/C#N)Nc1cccc2ncccc12)c1ccccc1", "9 to 11 nM"),
]

---

assay_procedure: Plasma concentration in Balb-C mouse at 2 mg/kg, iv administered as bolus dose measured after 15 mins by LC-MS analysis
Type: ADME, organism-based

# structure_smiles_string, concentration at 0.25 h
measured = [
    ("N#C/N=C(/NCc1cccnc1)NCC12CC3CC(CC(C3)C1)C2", "461 ng/mL"),
]

---

assay_procedure: Plasma concentration in Balb-C mouse at 10 mg/kg, po measured after 30 mins by LC-MS analysis
Assay type: ADME, organism-based

# structure_smiles_string, concentration at 0.5 h [ng/mL]
records = [
    ("N#C/N=C(/NCc1cccnc1)NCC12CC3CC(CC(C3)C1)C2", 39),
]

---

In this section, each of the compounds is paired with its reported pIC50.
target_or_system: UniProtKB Q99572
Sequence (Q99572 whole entry): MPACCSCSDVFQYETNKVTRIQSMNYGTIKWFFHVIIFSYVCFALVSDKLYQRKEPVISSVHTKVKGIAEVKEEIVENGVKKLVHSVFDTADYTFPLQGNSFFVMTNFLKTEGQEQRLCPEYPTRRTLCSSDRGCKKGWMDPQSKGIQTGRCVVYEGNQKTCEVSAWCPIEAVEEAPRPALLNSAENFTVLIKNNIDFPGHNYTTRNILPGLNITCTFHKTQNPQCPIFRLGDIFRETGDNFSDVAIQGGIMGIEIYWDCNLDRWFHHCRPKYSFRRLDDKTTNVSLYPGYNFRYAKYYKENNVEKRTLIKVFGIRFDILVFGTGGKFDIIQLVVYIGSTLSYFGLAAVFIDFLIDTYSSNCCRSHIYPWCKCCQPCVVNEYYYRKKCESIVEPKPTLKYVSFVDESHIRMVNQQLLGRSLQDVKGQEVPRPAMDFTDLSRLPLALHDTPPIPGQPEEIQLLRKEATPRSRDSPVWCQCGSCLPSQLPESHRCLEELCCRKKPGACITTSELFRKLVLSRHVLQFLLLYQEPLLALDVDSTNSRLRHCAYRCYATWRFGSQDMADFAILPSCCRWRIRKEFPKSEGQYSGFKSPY
assay_procedure: Antagonist activity at P2X7 receptor in LPS-stimulated human THP1 cells assessed as inhibition of LPS/BzATP-induced IL-1beta release preincubated for 30 mins followed by BzATP addition measured after 30 mins by ELISA
pIC50: −log10 of the molar value.

# structure_smiles_string, pIC50
rows = [
    ("N#C/N=C(/NCc1ccncc1)NCC12CC3CC(CC(C3)C1)C2", 6.41),
    ("N#C/N=C(/NCc1cccnc1)NCC12CC3CC(CC(C3)C1)C2", 7.40),
    ("N#C/N=C(/NCc1ccccn1)NCC12CC3CC(CC(C3)C1)C2", 6.86),
    ("N#C/N=C(\\NCC12CC3CC(CC(C3)C1)C2)Nc1cccc2ncccc12", 8.70),
    ("N#C/N=C(/NCc1ccccc1)NCC12CC3CC(CC(C3)C1)C2", 7.10),
    ("N#C/N=C(/NCc1cccc(F)c1)NCC12CC3CC(CC(C3)C1)C2", 6.88),
]

---

assay_procedure: Half life in Balb-C mouse at 2 mg/kg, iv administered as bolus dose by LC-MS method
Type: ADME, organism-based
setup_conditions: in vivo

# structure_smiles_string, half-life (min)
records = [
    ("N#C/N=C(/NCc1cccnc1)NCC12CC3CC(CC(C3)C1)C2", 13.2),
]

---

assay_procedure: Volume of distribution in Balb-C mouse at 2 mg/kg, iv administered as bolus dose by LC-MS method
Assay type: ADME, organism-based
setup_conditions: in vivo

# structure_smiles_string, value_unit, Vd
rows = [
    ("N#C/N=C(/NCc1cccnc1)NCC12CC3CC(CC(C3)C1)C2", "L/kg", 2.2),
]

---

assay_procedure: Plasma concentration in Balb-C mouse at 2 mg/kg, iv administered as bolus dose measured after 63 mins by LC-MS analysis
Type: ADME, organism-based
measured_metric: concentration at 1.05 h

# structure_smiles_string, measured_metric, readout_value
measured = [
    ("N#C/N=C(/NCc1cccnc1)NCC12CC3CC(CC(C3)C1)C2", "concentration at 1.05 h", "0.031 µg/mL"),
]
